Tested on: HCT-15 colon
EXPERIMENTAL_DETAILS: NCI-60 one-dose screen, 48 h
APPLIED_CONDITIONS: 10 µM unless noted
Compounds without any hit were thinned out: in the full panel of roughly 83,000, 20% have a hit. Calls of active or inactive are those of the source. The calls were made as follows: active = growth percent below 10; inactive = the rest.
Returns: one label drawn from active, inactive

Past entries and their recorded results:
>>> cat("OCCCc1n(Cc2ccc3ccccc3c2)c2ccccc2[n+]1Cc1ccc2ccccc2c1")
"inactive"
>>> cat("Cc1nn(-c2ccccc2)c2nc(N)c(C3=NCCO3)nc12")
"inactive"
>>> cat("Nc1nc2c(c(=O)[nH]1)C1(C(=O)Nc3ccccc31)c1c(nc(N)[nH]c1=O)N2")
"inactive"
>>> cat("COc1cccc2c1C(=O)c1c(O)c3c(c(O)c1C2=O)C[C@@](O)(C(C)=O)C[C@@H]3O[C@H]1C[C@H](N)[C@H](O)[C@H](C)O1")
"active"
>>> cat("CCCCCc1c(C)[nH]c(/C=C2\\N=C(c3ccc[nH]3)C=C2Oc2ccc(Cl)cc2)c1C")
"active"

### Prompt Which outcome was assigned to "CN(C)CCCN=c1cc2c(=O)n(CCCN(C)C)c(=O)c3c(NCCCN(C)C)cc4c(O)n(CCCN(C)C)c(=O)c1c4c3-2" in this test?
### Response inactive

### Prompt Which outcome was assigned to "Cc1cc2c(cc1C)[n+](Cc1ccc3ccccc3c1)cn2Cc1ccc2ccccc2c1" in this test?
### Response active

### Prompt Which outcome was assigned to CC(C)=CCCC(C)c1ccc(C)c2c1OCN(CC1CCNCC1)C2 (centres undefined) in this test?
### Response inactive

### Prompt Which outcome was assigned to "CCCCc1ccc(C(N)=O)nc1" in this test?
### Response inactive
